molecular target: Retinal dehydrogenase 2 (Homo sapiens); assay: qHTS for Inhibitors of the Aldehyde Dehydrogenase Family (ALDH1A2) Confirmation screens (AID 2061314); details: ALDH1A2 enzyme inhibition qHTS confirmation; series mostly up to 45.9 µM; further: nearly all actives have a fitted effect of over 65% in size
Records with an inconclusive call do not appear. Calls of active or inactive are those of the source. The call rests on the fitted dose curve; in most records, active means well fitted inhibition curve with a large enough effect; inconclusive means small, poorly fitted or top-dose-only effect; inactive means no such curve, though single readings can be large or run the other way.
Select the correct class. Options are 1 (yes) for active, 0 (no) for inactive and nothing else.

// known answers, use as guide
SMILES NOTATION	TESTED TARGET	LABEL CLASS
Oc1ccc(Cn2cc[nH]c2=S)cc1	Retinal dehydrogenase 2 (Homo sapiens)	0 (no)
Brc1ccc([C@H]2CN3CCSC3=N2)cc1	Retinal dehydrogenase 2 (Homo sapiens)	0 (no)
N#Cc1c(-c2ccc3c(c2)OCO3)no[n+]1[O-]	Retinal dehydrogenase 2 (Homo sapiens)	1 (yes)

Moving on to another compound below.
*Q* Could you check what this test reported for "CCOc1ccccc1-c1nnc2n1N=C(c1cccc(OC)c1)CS2" ?
*A* 0 (no)

---

Each entry below carries its recorded activation.
Biological target: Cellular tumor antigen p53 (Homo sapiens) (UniProt P04637)
Sequence (P04637 whole entry, looked up): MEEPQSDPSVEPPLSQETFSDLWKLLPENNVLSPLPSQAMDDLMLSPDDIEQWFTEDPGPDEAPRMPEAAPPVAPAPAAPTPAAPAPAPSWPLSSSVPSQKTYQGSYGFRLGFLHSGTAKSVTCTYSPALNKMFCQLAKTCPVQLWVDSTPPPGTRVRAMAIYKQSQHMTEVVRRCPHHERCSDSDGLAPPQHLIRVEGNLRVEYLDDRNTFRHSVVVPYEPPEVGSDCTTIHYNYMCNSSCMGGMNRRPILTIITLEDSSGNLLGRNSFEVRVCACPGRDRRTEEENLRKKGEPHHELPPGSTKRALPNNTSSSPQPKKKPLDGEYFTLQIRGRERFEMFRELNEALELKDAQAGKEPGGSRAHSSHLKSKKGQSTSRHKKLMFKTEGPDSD
Experiment: Primary qHTS for small molecule compounds that upregulate eGFP-tagged delta133p53alpha (in N-terminal) cells. (AID 2060322);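 further: cells pre-induced with doxycycline then dosed without doxycycline; 0% = DMSO vehicle and 100% = reference activator; nearly all actives have a fitted effect of over 75% in size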
Details: NCI-H358 eGFP-delta133p53alpha fluorescence, 24 h; stronger effect = higher value
Excerpt: Assay Development and Screening Technology National Center for Advancing Translational Sciences (NCATS), National Institute of Health (NIH), Rockville, Maryland Cellular senescence (CS) is one of the hallmarks of aging and age-related diseases. […] Here we report the development and validation of a cell-based quantitative high throughput screening (qHTS) assay in 1,536-well format. […]
Records with an inconclusive call do not appear.
Record the value in %, omitting the unit from your answer.

Answered examples (5):
MOLECULE	activation (%)
COc1ccc(-n2nc(CCC(=O)N(C)O)cc2-c2ccc(Cl)cc2)cc1	-8.47
CC1=C2[C@@H]([C@H](C)CC[C@H]2/C=C(\C)C(=O)O)[C@H](O)C1	-10.7
COc1cccc(OC)c1-c1ccc(C[C@H](NC(=O)c2c(Cl)cccc2Cl)C(=O)O)cc1	1.67
CCc1ccc2c(-c3cccc(Cl)c3)nc(=O)n(CC)c2n1	-40.5
O=C(O)C1=CO[C@@H](O[C@@H]2O[C@H](CO)[C@H](O)[C@H](O)[C@H]2O)[C@@H]2C(CO)=CC[C@H]12	30.5

Then this molecule:
*Q* Suppose we examine the molecule "Cc1cc(-c2ccccc2)nnc1NCCN1CCOCC1" ; what activation value has been reported?
*A* 16.4

---

assay: BET inhibitor-based combinations targeting novel dependencies in MECOM-rearranged (r) AML: UCSD-AML1 cell line (AID 2202235); conditions: UCSD-AML1 AML cells viability, CellTiter-Glo, 48 h; series mostly up to 46 µM; further: nearly all actives have a fitted effect of over 40% in size
Inconclusive results are not listed. Active and inactive are the calls of the source. Calls follow the shape of the dose curve; as a rule, active = well fitted inhibition curve with a large enough effect; inconclusive = small, poorly fitted or top-dose-only effect; inactive = no such curve, though single readings can be large or run the other way.
Select the correct class. Options are y for active, n for inactive and nothing else.

// known answers, use as guide
MOLECULE	LABEL CLASS
COc1cccc(Nc2c(C(N)=O)cnc3c(C)cc(S(=O)(=O)c4cccc(C(=O)N(C)C)c4)cc23)c1	n
CC(O)c1cc(C(=O)N[C@@H](C)Cn2ccc(-c3ccc(C#N)c(Cl)c3)n2)n[nH]1 (some centres undefined)	n

*Q* Could you check what this test reported for "CCCCOc1ccc(C(=O)Nc2ccc(F)cc2F)cc1" ?
*A* n

*Q* Could you check what this test reported for "Nc1ccccc1NC(=O)c1ccc(CNc2nccc(-c3cccnc3)n2)cc1" ?
*A* y

*Q* Could you check what this test reported for "Nc1ncn([C@@H]2O[C@H](CO)[C@@H](O)[C@H]2O)c(=O)n1" ?
*A* y

*Q* Could you check what this test reported for "Oc1c(Cl)cc(Cl)c2cccnc12" ?
*A* y

*Q* Could you check what this test reported for Nc1cccc2c1C(=O)N(C1CCC(=O)NC1=O)C2=O (centres undefined) ?
*A* n

*Q* Could you check what this test reported for "O=C(CN1C(=O)C2(CCCC2)NC[C@H]1c1cc(F)cc(F)c1)Nc1ccc2c(c1)C[C@@]1(C2)C(=O)Nc2ncccc21" ?
*A* n

*Q* Could you check what this test reported for "Cn1c(=O)c2c(ncn2C)n(C)c1=O" ?
*A* n

---

assay: BET inhibitor-based combinations targeting novel dependencies in MECOM-rearranged (r) AML: OCI-AML3 cell line (AID 2202232); settings: CellTiter-Glo luminescence, 48 h; OCI-AML3 viability; series mostly up to 46 µM; further: nearly all actives have a fitted effect of over 35% in size
Inconclusive results are not listed. Calls of active or inactive are those of the source. Calls follow the shape of the dose curve; as a rule, active = well fitted inhibition curve with a large enough effect; inconclusive = small, poorly fitted or top-dose-only effect; inactive = no such curve, though single readings can be large or run the other way.
Select the correct class. Options are 1 (active), -1 (inactive) and nothing else.

COMPOUND	LABEL CLASS
CCn1nc(C2CCN(C(=O)CCO)CC2)nc1-c1cnc(N)c(-c2nnc(C(C)(C)C)o2)n1	1
CC(C)CNc1ccnc(NCc2csc(-c3ccccc3)n2)n1	1

*Q* Could you check what this test reported for "Cc1cc(C)cc(NC(=O)Cc2ccc(OC(C)(C)C(=O)O)cc2)c1" ?
*A* -1

---

test: BET inhibitor-based combinations targeting novel dependencies in MECOM-rearranged (r) AML: HNT-34 cell line (AID 2202234); settings: HNT-34 AML viability, CellTiter-Glo luminescence, 48 h; series mostly up to 46 µM; further: nearly all actives have a fitted effect of over 35% in size
Results filed as inconclusive are left out. The source made the active and inactive calls. Calls follow the shape of the dose curve; as a rule, active = well fitted inhibition curve with a large enough effect; inconclusive = small, poorly fitted or top-dose-only effect; inactive = no such curve, though single readings can be large or run the other way. Positions of bridges follow the written chain, without caps; N, C: chain ends. Non-standard residues stand in square brackets, D forms with d. Residues, ends and D or L forms follow the SMILES beside them. ξ: configuration not given here. *: point of attachment. Octanoyl(6-Me) = CCC(C)CCCCC(=O)*; ξThr(3R) = C[C@@H](O)C(N)C(=O)O; dDab = NCC[C@@H](N)C(=O)O; Dab = NCC[C@H](N)C(=O)O
Select the correct class. Options are Y for active, N for inactive and nothing else.

COMPOUND	LABEL CLASS
Cc1ccccc1C(=O)Nc1ccc(C(=O)N2CCCC(O)c3cc(Cl)ccc32)c(C)c1 (configuration not stated)	N
CCc1ccc(C(=O)Nc2cc(CN3CCN(C)CC3)cc(C(F)(F)F)c2)cc1C#Cc1cnc2ccnn2c1	Y
O=C(O)CCn1c2c(c3ccccc31)C[C@H](NS(=O)(=O)c1ccc(F)cc1)CC2	N
Cc1ccccc1-n1c(Cn2nc(-c3cccc(O)c3)c3c(N)ncnc32)nc2cccc(C)c2c1=O	Y
COC(=O)[C@H](Cc1ccccc1)NC(=O)[C@@H](N)CC(=O)O (H-Asp-Phe-OMe)	N

*Q* Could you check what this test reported for "Nc1ccc(C(=O)Nc2cccc(-c3nc(N4CCOCC4)c4oc5ncccc5c4n3)c2)cn1" ?
*A* Y

*Q* Could you check what this test reported for "CC(C)(Sc1cc(C(C)(C)C)c(O)c(C(C)(C)C)c1)Sc1cc(C(C)(C)C)c(O)c(C(C)(C)C)c1" ?
*A* N

*Q* Could you check what this test reported for "Cc1ccc2c(=O)c3cccc(CC(=O)O)c3oc2c1C" ?
*A* N

*Q* Could you check what this test reported for C[C@@H](N)C1CCC(C(=O)Nc2ccncc2)CC1 (some centres not stated) ?
*A* N

*Q* Could you check what this test reported for "O=C(Nc1ccnc(NC(=O)C2CC2)c1)c1c(Cl)cccc1Cl" ?
*A* Y

*Q* Could you check what this test reported for "O=C(O)Cn1nnc(-c2cc(N3CCC(Oc4cc(F)ccc4Br)CC3)no2)n1" ?
*A* N

*Q* Could you check what this test reported for COc1c(N2CCNC(C)C2)c(F)cc2c(=O)c(C(=O)O)cn(C3CC3)c12 (configuration not stated) ?
*A* N

*Q* Could you check what this test reported for CCC(C)CCCCC(=O)N[C@@H](CCN)C(=O)NC(C(=O)N[C@H](CCN)C(=O)N[C@@H]1CCNC(=O)C([C@@H](C)O)NC(=O)[C@@H](CCN)NC(=O)[C@@H](CCN)NC(=O)[C@@H](CC(C)C)NC(=O)[C@H](Cc2ccccc2)NC(=O)[C@H](CCN)NC1=O)[C@@H](C)O (stereo partly drawn) ({Octanoyl(6-Me)}-[Dab][ξThr(3R)][dDab][dDab][Dab]F[dL][dDab][dDab][ξThr(3R)]; lactam 4-C) ?
*A* N

*Q* Could you check what this test reported for CC(C)COCC(CN(Cc1ccccc1)c1ccccc1)N1CCCC1 (configuration not stated) ?
*A* Y

*Q* Could you check what this test reported for CC(C)NCC(O)c1ccc(NS(C)(=O)=O)cc1 (configuration not stated) ?
*A* N

*Q* Could you check what this test reported for "O=C(Nc1nc2ccccc2n1CCN1CCOCC1)c1cccc([N+](=O)[O-])c1" ?
*A* N

*Q* Could you check what this test reported for "CN1CCN(c2cc(C(=O)Nc3ccc4c(c3)-c3c(c(C(N)=O)nn3-c3ccc(F)cc3)CC4)c(Cl)cn2)CC1" ?
*A* Y

*Q* Could you check what this test reported for "COC(=O)c1ccc2c(C(=Nc3ccc(N(C)C(=O)CN4CCN(C)CC4)cc3)c3ccccc3)c(O)[nH]c2c1" ?
*A* Y

*Q* Could you check what this test reported for "Oc1ccc(-c2ccc(-c3cc(Nc4cccc(CNC5CC5)c4)n[nH]3)cc2)c(O)c1" ?
*A* Y

*Q* Could you check what this test reported for "CC(=O)Nc1ccc([C@H](C)C(=O)Nc2ncc(C(C)C)s2)cc1" ?
*A* Y

*Q* Could you check what this test reported for "Nc1ccccc1NC(=O)c1ccc(CNc2nccc(-c3cccnc3)n2)cc1" ?
*A* Y

*Q* Could you check what this test reported for "Nc1nc2[nH]cc(CCc3ccc(C(=O)N[C@@H](CCC(=O)O)C(=O)O)cc3)c2c(=O)[nH]1" ?
*A* N
